test system: Gli1 expression in Ptch1-/- MEFs; test: qPCR of Gli1 expression in Ptch1-/- MEFs; assay type: cell-based, mouse; conditions: Mus musculus, 24 h, read-out: IC50 Gli1 qPCR (range, n)
MEASUREMENT NAME: IC50 (µM)

Completed entries (count: 5):
[[record]]
molecule = "CSc1nc(C)cc(-c2cc(NCc3ccccn3)nc3[nH]ccc23)n1 [Compound 45b]"
measurement_name = "IC50"
measured_number = 5.3

[[record]]
molecule = "NC(=O)c1ccc(-c2cc(NCc3ccccn3)nc3[nH]ccc23)o1"
measurement_name = "IC50"
measured_number = 11.3

[[record]]
molecule = "COc1cc(-c2cc(NCc3ccccn3)nc3[nH]ccc23)ccc1O"
measurement_name = "IC50"
measured_number = 14

[[record]]
molecule = "NC(=O)c1cc(-c2cc(NCc3cccnc3)nc3[nH]ccc23)cs1 [Compound 37b]"
measurement_name = "IC50"
measured_number = 8.8

[[record]]
molecule = "Cc1cccc(C(=O)Nc2cccc(NC(=O)Cc3cccnc3)c2)c1"
measurement_name = "IC50"
measured_number = 94.8


a: NC(=O)c1cc(-c2cc(NCc3ccccn3)nc3[nH]ccc23)cs1 [Compound 25b]
b: CN(C)c1ccc(CNC(=O)Nc2ccc(-n3ccnc3)nc2)cn1
Which one would you say has the larger IC50 value: a , or b ? In your reply, give the label of the chosen option.
b

====

target: Smo wt (Mus musculus); assay: Gli1 qPCR dose-response in C3H10T1/2 cells overexpressing Smo wt; conditions: read-out: inhibition of Smo WT (dose-response, Fig 7G)
Sequence (P56726 33-793): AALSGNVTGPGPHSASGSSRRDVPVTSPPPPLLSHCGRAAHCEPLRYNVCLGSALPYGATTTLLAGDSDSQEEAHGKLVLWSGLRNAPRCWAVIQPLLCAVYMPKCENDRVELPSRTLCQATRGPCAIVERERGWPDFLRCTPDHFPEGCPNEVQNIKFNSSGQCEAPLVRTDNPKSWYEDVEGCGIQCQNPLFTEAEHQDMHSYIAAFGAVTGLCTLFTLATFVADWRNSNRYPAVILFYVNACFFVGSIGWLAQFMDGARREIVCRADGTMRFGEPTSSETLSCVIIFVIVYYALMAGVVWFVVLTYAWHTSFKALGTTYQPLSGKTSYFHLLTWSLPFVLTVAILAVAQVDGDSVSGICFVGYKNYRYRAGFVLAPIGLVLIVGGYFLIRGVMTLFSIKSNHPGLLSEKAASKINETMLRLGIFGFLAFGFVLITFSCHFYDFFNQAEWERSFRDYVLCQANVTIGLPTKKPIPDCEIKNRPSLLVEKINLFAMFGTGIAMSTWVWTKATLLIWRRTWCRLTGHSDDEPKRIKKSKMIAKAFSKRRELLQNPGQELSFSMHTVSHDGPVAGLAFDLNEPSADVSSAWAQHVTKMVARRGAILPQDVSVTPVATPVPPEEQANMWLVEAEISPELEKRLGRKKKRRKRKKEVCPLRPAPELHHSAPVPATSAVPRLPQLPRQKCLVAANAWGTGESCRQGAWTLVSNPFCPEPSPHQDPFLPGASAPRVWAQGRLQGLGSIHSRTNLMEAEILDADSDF
MEASUREMENT NAME: pIC50
The quantity pIC50 is defined as the negative base-10 logarithm of the molar concentration.

pIC50 of CSc1nc(C)cc(-c2cc(NCc3ccccn3)nc3[nH]ccc23)n1 [Compound 45b] on Smo wt (Mus musculus)?
5.96

====

tested on: Gli1 expression in Ptch1-/- MEFs; assay: qPCR of Gli1 expression in Ptch1-/- MEFs; type: cell-based, mouse; conditions: Mus musculus, read-out: IC50 mGli1 qPCR (range, n)
MEASUREMENT NAME: pIC50
The quantity pIC50 is defined as the negative base-10 logarithm of the molar concentration.

Param item = CS(=O)(=O)c1ccc(C(=O)Nc2ccc(Cl)c(-c3ccccn3)c2)c(Cl)c1 [vismodegib, reference compound] ; retrieve measured pIC50.
8.74

====

assay: Aggregation counter-screens (DLS, centrifugation, unrelated enzymes), overall outcome; assay type: physicochemical; details: enzyme counter-screens
MEASUREMENT NAME: outcome of aggregation counter-screens

[[record]]
molecule = "NC(=O)c1cc(-c2cc(NCc3cccnc3)nc3[nH]ccc23)cs1 [Compound 37b]"
measurement_name = "outcome of aggregation counter-screens"
result = "well-behaved antagonists"

[[record]]
molecule = "COc1cc(-c2cc(NCc3ccccn3)nc3[nH]ccc23)ccc1O"
measurement_name = "outcome of aggregation counter-screens"
result = "well-behaved antagonists"

[[record]]
molecule = "CSc1nc(C)cc(-c2cc(NCc3ccccn3)nc3[nH]ccc23)n1 [Compound 45b]"
measurement_name = "outcome of aggregation counter-screens"
result = "well-behaved antagonists"


Source listed as paper PMC4973902.
